# System: SEM cells
# assayOverview: cell viability relative to DMSO control; higher = less cytotoxic
# measurementConditions: HPLM + 10% dialyzed FBS; 48 h; 0.19 µM
Catalogue of cell viability values
# number only, unit % dropped from output

Below are worked cases with known answers.
- O=C(c1ccc(F)c(F)c1Nc1ccc(I)cc1F)N1CC(O)([C@@H]2CCCCN2)C1: 83.6
- COc1cc2nc(-c3cc(F)ccc3O)nc(N[C@@H]3CNC[C@H]3C(C)(C)O)c2cc1OC: 59.6
- N#Cc1ccnc(Nc2cc(C3CCN(C4COC4)CC3)cc(N3CCC(F)(F)C3)n2)c1: 104
- ClC1=CC\2=C(NC(=O)\C(=C2N[C@@H]3CN4CCC3CC4)C5=NC6=C([NH]5)C=CC=C6)C=C1: 27.7
- COc1cc([C@H]2Oc3cc([C@H]4Oc5cc(O)cc(O)c5C(=O)[C@@H]4O)ccc3O[C@@H]2CO)ccc1O: 121

Request: Quick one: cell viability for CCN(C(=O)C/1=C(O)/C2=C(C=CC=C2Cl)N(C)C1=O)C3=CC=CC=C3 ?
Response: 61.8

Request: And then Cc1[nH]c(/C=C2\C(=O)Nc3ccccc32)c(C)c1CCC(=O)O , what is it?
Response: 84

Request: And then CCC\C1=C\C(=O)NC(=S)N1 , what is it?
Response: 91.1

Request: And then COc1cc2nc(N3CCN(C(=O)C4CCCO4)CC3)nc(N)c2cc1OC (stereo not drawn) , what is it?
Response: 117

Request: And then CC[C@H](NC(=O)[C@H](C)NC)C(=O)N1C[C@@H](O)C[C@H]1Cc1c(-c2[nH]c3cc(F)ccc3c2C[C@@H]2C[C@H](O)CN2C(=O)[C@H](CC)NC(=O)[C@H](C)NC)[nH]c2cc(F)ccc12 , what is it?
Response: 134

Request: And then CC[C@@]1(O)C(=O)OC\C2=C1\C=C\3N(CC4=C3N=C5C=CC=CC5=C4)C2=O , what is it?
Response: 14.9

Request: And then C=CCc1cccc(/C=N/NC(=O)CN2CCN(Cc3ccccc3)CC2)c1O , what is it?
Response: 124

Request: And then O=C(O)/C=C/c1ccc(O)c(O)c1 , what is it?
Response: 93.6

Request: And then COC[C@H](c1ccc(C(F)(F)F)cc1)N1CCN(C2(C)CCN(C(=O)c3c(C)ncnc3C)CC2)C[C@H]1C.O=C(O)/C=C\C(=O)O , what is it?
Response: 104

Request: And then CC/1=C(/C(CC(=O)N1)C2=CC=C(C=C2)C(F)(F)F)C(=O)NC3=C(F)C=C4[NH]N=CC4=C3 (stereo not drawn) , what is it?
Response: 89.4

Request: And then CN(C)c1nc(Cc2ccc(NC(=O)c3ccc4ccccc4c3)cc2)nc(Cl)c1CC(=O)O , what is it?
Response: 111

Request: And then C[C@H]1[C@@H](C(=O)C[C@H]2O[C@@H]3O[C@]4(C)CC[C@H]5[C@H](C)CC[C@@H]([C@H]2C)[C@@]35OO4)O[C@@H]2O[C@]3(C)CC[C@H]4[C@H](C)CC[C@@H]1[C@@]24OO3 , what is it?
Response: 84.1

Request: And then COc1ccc2c(c1)c(CC(=O)OCC(=O)O)c(C)n2C(=O)c1ccc(Cl)cc1 , what is it?
Response: 110
